For each record, write down the corresponding zone of inhibition at 1000 µg/mL.
- Tested on: Aspergillus oryzae
- Test Description: Antimicrobial activity against Aspergillus oryzae MTCC 3567 at 1000 ug/ml after 72 hrs by cup plate method
- Format: functional
- Assay Setup: MTCC 3567, 72 h, read-out: IZ
Numeric answer only, unit mm assumed.

Enquiry: Looking for the measured zone of inhibition at 1000 µg/mL of N#Cc1c(N)c2c(N)c3c(nc2oc1=O)OC(c1ccc(Cl)cc1)=CC3c1c(-c2ccccc2)[nH]c2ccccc12 (configuration not stated) , can you help?
Return: 13

Enquiry: Given Cc1ccc2[nH]c(-c3ccccc3)c(C3C=C(c4ccccc4)OC(N)=C3C#N)c2c1 (configuration not stated) , state its recorded zone of inhibition at 1000 µg/mL.
Return: 3

Enquiry: Value lookup for zone of inhibition at 1000 µg/mL; key = Nc1nc(=O)[nH]c2c1C(c1c(-c3ccccc3)[nH]c3ccc(Cl)cc13)C=C(c1ccccc1)O2 (configuration not stated)
Return: 12

Enquiry: Look at this compound and give its reported zone of inhibition at 1000 µg/mL. Cc1ccc(C2=CC(c3c(-c4ccccc4)[nH]c4ccccc34)c3c(N)nc(=S)[nH]c3O2)cc1 (configuration not stated)
Return: 9

Enquiry: Return reported zone of inhibition at 1000 µg/mL; argument: Cc1ccc2[nH]c(-c3ccccc3)c(C3C=C(c4ccc(Cl)cc4)Oc4[nH]c(=S)nc(N)c43)c2c1 (configuration not stated)
Return: 9

Enquiry: Reported zone of inhibition at 1000 µg/mL for Cc1ccc(C2=CC(c3c(-c4ccccc4)[nH]c4ccc(Cl)cc34)c3c(N)n[nH]c3O2)cc1 (configuration not stated) : what is it?
Return: 5

Enquiry: Find the recorded zone of inhibition at 1000 µg/mL belonging to O=c1[nH]cnc2c1C(c1c(-c3ccccc3)[nH]c3ccccc13)C=C(c1ccc(Cl)cc1)O2 (configuration not stated) and report it.
Return: 10

Enquiry: Would you kindly share the measured zone of inhibition at 1000 µg/mL for Nc1nc(=S)[nH]c2c1C(c1c(-c3ccccc3)[nH]c3ccc(Cl)cc13)C=C(c1ccccc1)O2 (configuration not stated) ?
Return: 0

Enquiry: Return reported zone of inhibition at 1000 µg/mL; argument: Nc1n[nH]c2c1C(c1c(-c3ccccc3)[nH]c3ccc(Cl)cc13)C=C(c1ccccc1)O2 (configuration not stated)
Return: 12

Enquiry: Which zone of inhibition at 1000 µg/mL is listed for Cc1ccc2[nH]c(-c3ccccc3)c(C3C=C(c4ccc(Cl)cc4)Oc4nc5oc(=O)c(C#N)c(N)c5c(N)c43)c2c1 (configuration not stated) ?
Return: 3

Enquiry: // returns reported zone of inhibition at 1000 µg/mL for input O=c1[nH]cnc2c1C(c1c(-c3ccccc3)[nH]c3ccccc13)C=C(c1ccccc1)O2 (configuration not stated)
Return: 5

Enquiry: Data request, read-out zone of inhibition at 1000 µg/mL, for Cc1ccc2[nH]c(-c3ccccc3)c(C3C=C(c4ccccc4)Oc4[nH]nc(N)c43)c2c1 (configuration not stated)
Return: 8

Enquiry: Looking for the measured zone of inhibition at 1000 µg/mL of Cc1ccc2[nH]c(-c3ccccc3)c(C3C=C(c4ccccc4)Oc4[nH]c(=O)nc(N)c43)c2c1 (configuration not stated) , can you help?
Return: 5

Enquiry: Give its zone of inhibition at 1000 µg/mL value. Item: Nc1n[nH]c2c1C(c1c(-c3ccccc3)[nH]c3ccccc13)C=C(c1ccccc1)O2 (configuration not stated)
Return: 10

Enquiry: Sample O=c1[nH]cnc2c1C(c1c(-c3ccccc3)[nH]c3ccc(Cl)cc13)C=C(c1ccc(Cl)cc1)O2 (configuration not stated) — what was its zone of inhibition at 1000 µg/mL?
Return: 3

Enquiry: For the compound shown here, Nc1nc(=O)[nH]c2c1C(c1c(-c3ccccc3)[nH]c3ccc(Cl)cc13)C=C(c1ccc(Cl)cc1)O2 (configuration not stated) , give the reported zone of inhibition at 1000 µg/mL.
Return: 9

Enquiry: Recorded zone of inhibition at 1000 µg/mL of Cc1ccc(C2=CC(c3c(-c4ccccc4)[nH]c4ccccc34)c3c(N)n[nH]c3O2)cc1 (configuration not stated) , please.
Return: 7
